Tested on: S. aureus RN4220
ASSAY: growth inhibition call (relative growth <= 0.2)
COND: 50 µM
The whole screen tested about 39,000 compounds, of which about 500 (1.3%) were called active. Only a selection was taken, and actives are over-represented in it overall.
Entry note: the call must match one of label 1 for active, label 0 for inactive

IN: Tell me the assay call for CCOC(=O)c1c(C)cc(O)c(C=O)c1O please.
OUT: label 1

IN: Dear colleague, could you share the recorded outcome for C[C@@H]1CCCCO[C@@H](CN(C)Cc2ccccc2)[C@@H](C)CN([C@@H](C)CO)C(=O)c2cc(NS(=O)(=O)c3ccc(F)cc3)ccc2O1 when you have a moment?
OUT: label 0

IN: For CO[C@@H]1CN(C)C(=O)c2ccc(NC(=O)c3ccc(F)cc3)cc2OC[C@@H](C)N(C(=O)CN(C)C)C[C@@H]1C , what call appears in the results of this test?
OUT: label 0

IN: // outcome(item) with item = COc1ccc(NC(=O)Nc2ccc3c(c2)CC(=O)N([C@@H](C)CO)C[C@H](C)[C@H](CN(C)S(=O)(=O)c2c(C)noc2C)O3)cc1
OUT: label 0

IN: Could you please tell me the result logged for CC(N)O.Cc1cc(CC(C)CC(C)(C)C)n(O)c(=O)c1 (stereo not drawn) in this assay?
OUT: label 1

IN: Record lookup: outcome of this test for O=C1NC2=C(C(=O)OC2)[C@H](c2ccccc2)N1 ?
OUT: label 0

IN: // return assay outcome for Cc1noc(C)c1S(=O)(=O)Nc1ccc2c(c1)CC(=O)N([C@@H](C)CO)C[C@H](C)[C@H](CN(C)Cc1ccc(C(=O)O)cc1)O2
OUT: label 0

IN: Which outcome was assigned to Cc1cc(C(=O)Nc2cccc3c2O[C@H](CN(C)C(=O)Nc2ccccc2)[C@@H](C)CN([C@H](C)CO)C3=O)n(C)n1 in this test?
OUT: label 0

====

Tested on: S. aureus RN4220
ASSAY: growth inhibition call (relative growth <= 0.2)
COND: 50 µM
Among all 39,000 compounds or so, about 500 (1.3%) were called active. The sample holds actives, similar compounds and a random draw of the others, so the mix is not that of the screen.
Could you please pick one outcome from this set? label 1 (active), label 0 (inactive)

IN: Kindly provide the recorded test outcome for the following compound: C[C@@H]1CCCCO[C@@H](CN(C)C(=O)Nc2ccc(C(F)(F)F)cc2)[C@@H](C)CN([C@H](C)CO)C(=O)c2cc(NS(=O)(=O)c3cn(C)cn3)ccc2O1
OUT: label 0

IN: Write down the call the test reported for this compound. Item: O=C(C[C@@H]1CC[C@H]2[C@@H](COC[C@@H](O)CN2C(=O)Nc2cccc(Cl)c2)O1)NCCCN1CCOCC1
OUT: label 1

IN: Would you mind telling me which call this test gave O=C(C[C@@H]1CC[C@H]2[C@@H](COC[C@@H](O)CN2C(=O)Nc2cccc(F)c2)O1)NCCCN1CCOCC1 ?
OUT: label 0

IN: What did the test return for C[C@@H]1CCCCO[C@@H](CN(C)S(=O)(=O)c2ccc(F)cc2)[C@H](C)CN([C@@H](C)CO)C(=O)c2cc(NC(=O)CCC(F)(F)F)ccc2O1 ?
OUT: label 0

IN: Look up the recorded call for Cn1cnc(S(=O)(=O)N[C@H]2C=C[C@@H](CC(=O)NCC3CC3)O[C@H]2CO)c1 in this test.
OUT: label 0

IN: // return assay outcome for CCn1cc(C(=O)O)c(=O)c2cc(F)c(N3CCNC(C)C3)c(F)c21.Cl (stereo not given)
OUT: label 1

IN: Test call for this compound, please: CO[C@H]1CN(C)C(=O)c2ccc(NC(=O)Nc3cccc(F)c3)cc2OC[C@H](C)N(C(=O)Nc2c(C)noc2C)C[C@@H]1C
OUT: label 0

IN: Called result for CCOC(=O)OC(C)OC(=O)C1N2C(=O)C(NC(=O)C(N)c3ccccc3)C2SC1(C)C.Cl (stereo not given)
OUT: label 1

IN: Hey, what did the test say about C[C@H]1CCCCO[C@H](CN(C)C(=O)Nc2ccc(C(F)(F)F)cc2)[C@@H](C)CN([C@@H](C)CO)C(=O)c2cc(NS(=O)(=O)c3cn(C)cn3)ccc2O1 ?
OUT: label 0

IN: Fill in: this test's call for CCCC[C@@H](C)/C=C(C)/C=C(\C)C(=O)NC1=C[C@@](O)(/C=C/C=C/C=C/C(=O)NC2C(=O)CCC2=O)[C@@H]2O[C@@H]2C1=O is ___
OUT: label 1

IN: What call does the record list for C[C@@H]1CCCCO[C@H](CN(C)C(=O)NC2CCCCC2)[C@@H](C)CN([C@@H](C)CO)C(=O)c2cc(NC(=O)CCC(F)(F)F)ccc2O1 ?
OUT: label 0

IN: Look up the recorded call for C[C@@H]1CN([C@H](C)CO)C(=O)c2cc(NS(=O)(=O)c3cn(C)cn3)ccc2O[C@@H](C)CCCCO[C@H]1CN(C)C(=O)Nc1ccc(C(F)(F)F)cc1 in this test.
OUT: label 0

IN: Query: recorded result category for C[C@@H]1CN([C@H](C)CO)S(=O)(=O)c2ccc(C#C[C@@H](C)O)cc2O[C@@H]1CN(C)C(=O)c1ccncc1 in this test
OUT: label 0

IN: For O=C(C[C@@H]1CC[C@H]2[C@@H](COC[C@H](O)CN2C(=O)Nc2cccc(Cl)c2)O1)NCCCN1CCOCC1 , what call appears in the results of this test?
OUT: label 1

IN: For this compound, state the assay outcome: O=C(C[C@@H]1CC[C@H]2[C@@H](COC[C@H](O)CN2S(=O)(=O)c2ccccc2)O1)N[C@H]1CCN(Cc2ccccc2)C1
OUT: label 0

IN: // return assay outcome for C[C@@H]1CCCCO[C@H](CN(C)C(=O)Nc2ccc(C(F)(F)F)cc2)[C@@H](C)CN([C@H](C)CO)C(=O)c2cc(NS(=O)(=O)c3cn(C)cn3)ccc2O1
OUT: label 0

IN: What did this assay record as the result for CC(C)c1ccc(N2C=Nc3ccc(C(C)C)cc3C2)cc1 ?
OUT: label 1

IN: Outcome? Cc1ccc(Cl)c(Nc2ccccc2C(=O)[O-])c1Cl.[Na+]
OUT: label 0

IN: Can you look up the reported call for O=C(C[C@@H]1CC[C@@H]2[C@H](COC[C@H](O)CN2C(=O)Nc2cccc(Cl)c2)O1)NCCCN1CCOCC1 for me?
OUT: label 1

IN: Test call, this compound: O=C(C[C@H]1CC[C@H]2[C@@H](COC[C@@H](O)CN2C(=O)Nc2cccc(Cl)c2)O1)NCCCN1CCOCC1
OUT: label 0

IN: // param item: Cc1ccc(S(=O)(=O)Nc2ccc3c(c2)C(=O)N([C@H](C)CO)C[C@@H](C)[C@H](CN(C)Cc2ccc(C(F)(F)F)cc2)O3)cc1 ; yields the recorded call
OUT: label 0

IN: Hey, what did the test say about O=C(C[C@@H]1CC[C@@H]2[C@H](COC[C@@H](O)CN2C(=O)Nc2cccc(F)c2)O1)NCCCN1CCOCC1 ?
OUT: label 0

IN: What did the test return for O=C(C[C@H]1CC[C@@H]2[C@H](COC[C@H](O)CN2C(=O)Nc2cccc(Cl)c2)O1)NCCCN1CCOCC1 ?
OUT: label 0

IN: Which result was noted for this compound in the test: O=C(C[C@@H]1CC[C@H]2[C@@H](COC[C@H](O)CN2C(=O)Nc2cccc(F)c2)O1)NCCCN1CCOCC1
OUT: label 0

IN: Outcome logged for O=C(C[C@@H]1CC[C@@H]2[C@H](COC[C@H](O)CN2C(=O)Nc2cccc(F)c2)O1)NCCCN1CCOCC1 in this assay:
OUT: label 0

IN: What was the test verdict on C[C@@H]1CCCCO[C@H](CN(C)C(=O)Nc2ccc(C(F)(F)F)cc2)[C@H](C)CN([C@H](C)CO)C(=O)c2cc(NS(=O)(=O)c3cn(C)cn3)ccc2O1 ?
OUT: label 0

IN: State the result this test recorded for CC(C)NC(=O)N(C)C[C@H]1Oc2ccc(NC(=O)NC3CCCCC3)cc2C(=O)N([C@H](C)CO)C[C@@H]1C .
OUT: label 0

IN: Test call for this compound, please: Cc1ccc(C(C)C)cc2c(C)ccc1-2
OUT: label 0

IN: Outcome logged for C[C@@H]1CN([C@@H](C)CO)S(=O)(=O)c2ccc(C#Cc3ccccc3)cc2O[C@H]1CN(C)C(=O)CN(C)C in this assay:
OUT: label 0

IN: Write down the call the test reported for this compound. Item: Cc1noc(C)c1NC(=O)N(C)C[C@@H]1Oc2ccc(NS(=O)(=O)c3cn(C)cn3)cc2CC(=O)N([C@H](C)CO)C[C@@H]1C
OUT: label 0

====

Tested on: S. aureus RN4220
ASSAY: growth inhibition call (relative growth <= 0.2)
COND: 50 µM
The whole screen tested about 39,000 compounds, of which about 500 (1.3%) were called active. This excerpt belongs to a sample that is enriched for actives.
RECORDED ENDPOINT: growth inhibition call

Record excerpt, results attached:
COMPOUND	growth inhibition call
COc1cccc2c1C(=O)c1c(O)c3c(c(O)c1C2=O)CC(O)(C(C)=O)CC3OC1CC(N)C(O)C(C)O1.Cl (configuration not stated)	inactive
C[C@@H]1CN([C@H](C)CO)C(=O)c2cc(C#Cc3ccccc3F)cnc2O[C@H]1CN(C)C(=O)C1CCOCC1	inactive
CC(C)c1ccccc1Cc1cc(C(=O)Nc2ccc(S(=O)(=O)c3ccccc3C(C)(C)C)cc2)c(O)c(O)c1O	inactive
C[C@@H]1CN([C@H](C)CO)C(=O)Cc2cc(NS(=O)(=O)c3cn(C)cn3)ccc2O[C@H]1CN(C)S(C)(=O)=O	inactive
CS(=O)(=O)N1CCC2(CC1)OCCO2	inactive
COCC(=O)Nc1ccc2c(c1)C(=O)N(C)C[C@@H](OC)[C@H](C)CN(Cc1ccccc1OC)[C@@H](C)CO2	inactive

IN: Would you kindly share the measured growth inhibition call for COCCOC(=O)N1C(=O)[C@@]2(c3cc(C#CCNC(N)=O)ccc31)[C@H](c1ccccc1OCCO)N1[C@H](c3ccccc3)[C@H](c3ccccc3)OC(=O)[C@H]1[C@@H]2C(N)=O ?
OUT: inactive

// provenance: the antibiotic and cytotoxicity screens of Wong et al. (2023)
